Test: soluble on expression in E. coli; label from the status in PepcDB or PDB records
MEASURED PARAMETER: soluble on expression in E. coli

• MGSDKIHHHHHHVETSASVMEPFLQLLRGNNLRWRSFGLTRQDGNVSETEAIPNPQDTVDTHPWGRYVAMGDSFTEGIGDPEPGSPGGHRGWADRVAEELSRGHSDFAYANLAVRGRLLEQIVDQQLAPCLALKPDLVTLSAGGNDLIRPGGDPDALAEKLDSVVHILSLGGATVVLFNGPDTGSSVLGRVRSKIAIYNENLRTVAARHDAVIADMWSLRQLSDPQMWDQDRLHFSPLGHHTIAAMVLDSLNIRHTLEPLSPKPLPQRSWREARSGDLVWAREYFVPWVVRRLRHQSSGDGVTAKRPTPGPVFGPGMPLGSGEAPGIEAEQR = not soluble
• GPGSMERNPAHPLDATAKLPVRQKEVTFDSLCVNADDRFVEGLSGKSEERRGFRPNTKLYAANAARTRGRTGGASDLGFTESLPTLNEVIGEEKISHLGRLRARPPRAAEGSTDVIPVARVKAKSSLTRPVHATPTSIPSTRSLWVEGSSVLNQDVGHASAALTHLSDCVAQERRLKVEWEAARLAKIRALRAVVKVFMQSFIDRGSFARSTSVGGKVMSDTLAVARCSVITNTLVGTVQNFMRAFRSRRLCAARGPVSGLQLFPNIAGQESDRFTLSLYSSAPGGAESSVNESYVSPNHSVSDYLEEEEVSRIKQLYFDYFDCEAVSISSAVASGSDMSIFAYSAASSISRPSSPVSRGGDHSSFSHCASTTM = not soluble

----------
Experiment: soluble on expression in E. coli; label from the status in PepcDB or PDB records
MEASURED PARAMETER: soluble on expression in E. coli

* MGSDKIHHHHHHMTKHLYIDEYGSFVGKTSERLTVSQGGELKAEIPLSRLKSVNILKGGISLSSDIIEACSLRGIKIFFLDFRNVAHTAITSTANHAVANVRKAQFLTIESNHGREIARTLIVGKLKNQRATLQYFYKYLKNTDKQSKKLESAIEKIKETIESLKNIELSNNKHWSQIIMGKEGGMAAIYFDAIGAELLEECDFTTRIGRGAEDIMNSALNYGYAILTSFVWQSIINAGLEAYAGVLHTNRPGKPSLVLDVMEEYRAWVVDRNIIKLRSSLAGKKELDAELKKKIITEINATMNKKHLYNGKNLSLQGVMQRQVYRLVGAFMQQNRYKSYIFKW | not soluble
* MVMETESKFHVLAVDDSLFDRKMIERLLQKSSCQVTTVDSGSKALEFLGLRVDDNDPNALSTSPQIHQEVEINLIITDYCMPGMTGYDLLKKVKESAAFRSIPVVIMSSENVPARISRCLEEGAEEFFLKPVKLADLTKLKPHMMKTKLKKESEKPVAIEEIVVSKPEIEEEEEESSVIEILPLHQEIESEQLEPMLSSNKRKAMEEVVSTDRSRPKYNDITTSV | not soluble

----------
Assay: soluble on expression in E. coli; label from the status in PepcDB or PDB records
MEASURED PARAMETER: soluble on expression in E. coli

- MGSDKIHHHHHHMPRLIVLNDNTPSRGLINDWGWSILIEGRERFLFDADTNPLVLAHNSKVLNVNLRNLDFAVLSHWHYDHYGGFEYIAELNPGIKFYAPPQGLALAMRWGFQPIAINFGGKIEEEVYTSGVIDGIEQAIGLETSSGLVVIVGCSHPGVDRMVEEVLKVSGYEKAYLVIGGFHSPPIHRLRNLARLSELIAPAHCSGDVAKAFIKRNYKEKYVDVKTGTILEI: not soluble
- MGSDKIHHHHHHMEDKLISRYDILVNRYKELVSEKLSRKDFIEYNEILFSAHSCAIEGNSFSVDETRTLKEKGLGMIPKGKTLLEAFEILDHFQAYEYLLKNLDRPLTEELLKETHRLLTEHTLSYKTQYDEIPSNPGEYTTVDMCAGDTIFGDHEQLIKQVPRLLQSTQQVLDSGKIHPMIIAARFHGFYEYLHPFRDGNGRLGRLMSNFILLKKEQPLLIIPGSQREEYITALKYIKKERTDEFLIDFFFRTSIKRMEQEIEEKKNLTENFIRGMEFVRNVKSSNDDISEI: not soluble

----------
Assay: soluble on expression in E. coli; label from the status in PepcDB or PDB records
MEASURED PARAMETER: soluble on expression in E. coli

- MLLNLDVRMQLKELAQKEFKEPVSIKLFSQAIGCESCQTAEELLKETVEVIGEAVGQDKIKLDIYSPFTHKEETEKYGVDRVPTIVIEGDKDYGIRYIGLPAGLEFTTLINGIFHVSQRKPQLSEKTLELLQVVDIPIEIWVFVTTSCGYCPSAAVMAWDFALANDYITSKVIDASENQDLAEQFQVVGVPKIVINKGVAEFVGAQPENAFLGYIMAVYEKLKREKEQA: soluble
- MSPGPQSGGQERGSMERKMVELEDTGLTFATEVDLERLQALAAEWLQVIGEDPGREGLLKTPERVAKAWAFLTRGYRQRLEEVVGGAVFPAEGSEMVVVKGVEFYSMCEHHLLPFFGKVHIGYIPDGKILGLSKFARIVDMFARRLQVQERLAVQIAEAIQEVLEPQGVGVVVEGVHLCMMMRGVEKQHSRTVTSAMLGVFRENQKTREEFLSHLRDGTA: soluble
- MVHIRLSFITFSLILFLVVDMVKIPKSHPRYWSLLYREKIIEGMEKGITAKAGLIAHGRGEAFDYLIGEKTIPPAETAMRAAIAKLLLAKHPVISVNGNVAALVPKETVELAKVLNAKLEINLFYRTEERVKKIAEVLYENGADEVLGINPTKRIPGLESERGKVDENGIWKADVILVPLEDGDRTEALCRMGKFVITVDLNPLSRSARMADITIVDNIVRAYPRMIELAKEMKSLPKEDLEKIVATYDNSKVLSEVLIHIRDRLTKLAEGGIWKKEKLEHHHHHH: not soluble
- SLNAFDELVFAPMYVTSVDGRQAGVFHAHKGRRLIAAHRKAGTTPFVGASRVNNSITGFADTPALFPGGWITLIYNGDGGTGHAKYQPAPFNASDDVIALEPISKQATEPALLLIASMLTLQCVPKFGFGYKLTLHRLDRQKIMIPVLTNADGEQVVNWSGLTRHGKRLLNEAKTRARAVRELTSTAKPKLPELNYMPMFITDVFESMNAAGKWFDFAKACLSGKPFAPYIARSGGGNGVGSFVPHQGFAPPNAGNAITIGVSTSTVFYQPVPFYTSKEIQVLRHHKLTADSGLILVALLREQMGKFQWGNGASLERLKATRIMVPAMVGADGEDVVDWDGLSRYGRALRARVELAINAVL: not soluble
- MSLDKVTLLLNWYVYGEHAPFFYGKAKGLYAAEGIDLDIQEGRGSAVTIQAVAAGTVQFGYADVPTMIRAAAKGAPVVAVGVALQKSPMSVMGFSDKNIRKPEDIKGKIVATTPGDSMSQIWPLFLKQAGLRASDFQVVSGDAQTKLNAVANGRADLLLGYVMDQSMKLKDATGKDVRPIMFADYGIHMVSSGIITNKDLLKSNPDLVRRFMKATTAAFIGAEKDPGAAVDALLADLPKAGKRETLLEGFALTTPLYHTDETKGRPPFQVTDADMTSTVDLLIEYGGLEASAKDNTKSFYTRDYLPAAGNEGHHHHHH: soluble

----------
Test: soluble on expression in E. coli; label from the status in PepcDB or PDB records
MEASURED PARAMETER: soluble on expression in E. coli

• MGSDKIHHHHHHMSLPAMDAGIYLEETAPRALIEHNNILDNSVGVYLHGSADAMVRENKIVGDATLRVNERGNGVTVWNAPGAQVVGNDISKGRDGIFSNTSTHNTYKNNRFSDLRFAVHYMYTNDSEISGNISVGNNMGYVLMFSERLKVFDNIAVGSRDQGIMLNYVNYSDIHDNIINKAGKCVFAYNANYDKLSANHFENCQIGIHFTAAIEGTSLHDNSFINNESQVKYVSTRFLDWSEGGHGNYWSDNSAFDLNGDGFGDSAYRPNGIIDQIIWRAPVSRLLMNSPAISIVKWAQAQFPAVLPGGVVDSKPLMKPYAPKIQTRYQAMKDGLLKKVETRQLEWGRAENGSLN = not soluble
• MYRSEVSKPQLENPNLVDRIIVIILPNYFYEYESVLKHITKENFGIIEKTVKHFKTEEVMEWKSADLESQDIWNLSDRLIDGPCMLLLCQRANAFIEMKEVAKYHNVIAKRMSSSDGIYYSKTTIAAYHDIIFFFPKYIDERAMLKHAKDYLSVEVWPKLSQGLARVAVERPDNPIKWLADYLHQLRQ = not soluble
• MFEIATTPMATTVVISGDLDLASRDQFLEVAARLTSLRRSLLTIDMCDVRFMDSTGAAFLISLAETGQRRGWLTVLRGSSDAHRFVLDICGATHLFRFDTEHYCHHTASPA = not soluble
